All values here come from ChEMBL document CHEMBL5058577.

tested on: Fibroblast; test: Multiplex assay against human fibroblast; assay type: toxicity, cell-based; settings: 48 h, 1 µM, compound concentration 1 uM, replicate 2
MEASURED PARAMETER: Population Pyknosed Nuclei (%)
Field: numeric (%). Do not append units.

Request: Please look up its Population Pyknosed Nuclei (%): CC(C)(O)C(=O)N1CCN(c2ccc(C(F)(F)F)c(C3=C(c4c[nH]c5ccccc45)C(=O)NC3=O)c2)CC1
Response: 28

Request: Thanks! And O=c1nc2[nH]c3ccccc3nc-2c(=O)[nH]1 ?
Response: 20

Request: Can you check CN1CCC(C(=O)c2cccc(NC(=O)c3c(F)cc(F)cc3F)n2)CC1 next?
Response: 10

Request: Also need C[C@@H]1CC(=O)Nc2cccc(-c3ccc4c(c3)c(-c3cnn(C)c3)nn4C)c2N1 , thanks.
Response: 13

Request: And Cc1sc2c(c1C)C(c1ccc(Cl)cc1)=N[C@H](CC(=O)OC(C)(C)C)c1nnc(C)n1-2 ?
Response: 21

Request: Subsequent entry: O=C(NCCNCC(O)COc1ccc(O)cc1)N1CCOCC1.O=C(NCCNCC(O)COc1ccc(O)cc1)N1CCOCC1.O=C(O)/C=C/C(=O)O (stereo unspecified) [XAMOTEROL FUMARATE]
Response: 10

Request: Query Cc1cc(-c2ccc3c(c2)CC[C@H]3N2CC3(CCN(C(=O)Cc4cn5cc(C)sc5n4)CC3)C2)ncn1 next
Response: 20

Request: Next record, please: Nc1nc(-c2ccco2)c2cnn(Cc3ccccc3F)c2n1
Response: 10

Request: Next up: COCCn1c(C)c(C)s/c1=N\C(=O)C1C(C)(C)C1(C)C
Response: 11

Request: Try this compound next: COc1cc2nc(N3CCN(C(=O)c4ccco4)CC3)nc(N)c2cc1OC.Cl [PRAZOSIN HYDROCHLORIDE]
Response: 14

Request: Would you mind doing OCCCNc1cc(-c2ccnc(Nc3cccc(Cl)c3)n2)ccn1 as well?
Response: 32

Request: Same lookup for CSc1nc(NC2CCCC2)c([N+](=O)[O-])c(NC2CCCC2)n1 , please.
Response: 14

Request: Then CCCCC[C@H](O)/C=C/[C@H]1[C@H](O)CC(=O)[C@@H]1CCCCCCC(=O)O ?
Response: 21

Request: What do we get for COc1ccc2[nH]c(I)c(CCNC(C)=O)c2c1 ?
Response: 13

Request: Here is the next compound: O=C(Nc1cc(-c2ccccc2)nn1-c1ccccc1F)c1ccc([N+](=O)[O-])cc1
Response: 15

Request: Same again, this time with Cc1cc(O)c(-c2ccc([C@@H](C)CN(C)C)cc2)c2c1[nH]c(=O)c1sccc12
Response: 20

----------
test system: U2OS; assay: Multiplex assay against U2OS; type: toxicity, cell-based; conditions: human, 12 h, 10 µM, compound concentration 10 uM, replicate 1
MEASURED PARAMETER: Population Mitochondria Different-Phenotype (%)
Put your answer as a value accompanied by its unit after it.

Request: What value of measured Population Mitochondria Different-Phenotype (%) is listed for Cc1c(Cc2ccc3ccccc3n2)c2cc(F)ccc2n1CC(=O)O ?
Response: 1%

Request: # iterate: N[C@](CC1c2ccccc2Oc2ccccc21)(C(=O)O)[C@H]1C[C@@H]1C(=O)O
Response: 3%

Request: Please do the same for CCc1nn2c(C)cc(C)nc2c1Cc1ccc(-c2nnc(C3CCNCC3)o2)cc1 as well.
Response: 43%

Request: Next entry: CC(C)(C)c1ccc(CSc2cnn(C(C)(C)C)c(=O)c2Cl)cc1
Response: 5%

Request: Note, next up: Cc1sc2c(c1C)C(c1ccc(Cl)cc1)=N[C@H](CC(=O)OC(C)(C)C)c1nnc(C)n1-2
Response: 35%

----------
system: U2OS; assay: Multiplex assay against U2OS; format: toxicity, cell-based; conditions: human, 48 h, 10 µM, compound concentration 10 uM, replicate 2
MEASURED PARAMETER: Population Normal (%)
// note: answer is a bare numeric in %

Request: Sample CCCCCCNC(=O)Nc1ccc(S(=O)(=O)Nc2ccc(CCNC[C@H](O)COc3ccc(O)cc3)cc2)cc1 — what was its Population Normal (%)?
Response: 98

Request: Here is the next compound: S=C(NCCCc1c[nH]cn1)NCCCN(Cc1ccc(Cl)c(Cl)c1)c1ccc(Br)cn1
Response: 84

Request: For Cc1c(Cc2ccc3ccccc3n2)c2cc(F)ccc2n1CC(=O)O then?
Response: 97

Request: Now consider CCC(=O)OCC(=O)[C@@]1(OC(=O)CC)[C@@H](C)C[C@H]2[C@@H]3CCC4=CC(=O)C=C[C@]4(C)[C@@]3(Cl)[C@@H](O)C[C@@]21C [BECLOMETHASONE DIPROPIONATE] and answer again.
Response: 93

Request: Consider next the compound Cn1cc(C(=O)OCC2CCN(CCNS(C)(=O)=O)CC2)c2ccccc21 in the same way.
Response: 97

Request: Item: N[C@](CC1c2ccccc2Oc2ccccc21)(C(=O)O)[C@H]1C[C@@H]1C(=O)O
Response: 100

Request: Also, CN1CCN(c2ccc(Nc3c4ccccc4nc4ccccc34)cc2)CC1.Cl.Cl.O please.
Response: 84

Request: Next record, please: COc1cc2nc(N3CCN(C(=O)COc4c(OC)cccc4C(C)C)CC3)nc(N)c2cc1OC.Cl.Cl
Response: 67

Request: Query O=C(NCCNCC(O)COc1ccc(O)cc1)N1CCOCC1.O=C(NCCNCC(O)COc1ccc(O)cc1)N1CCOCC1.O=C(O)/C=C/C(=O)O (stereo not given) [XAMOTEROL FUMARATE] next
Response: 97

Request: Note, next up: Cc1ccc(OCC(O)C(C)NC(C)C)c2c1CCC2.Cl (stereo not given)
Response: 99

Request: Likewise for C=CCN1C[C@H](C(=O)N(CCCN(C)C)C(=O)NCC)C[C@@H]2c3cccc4[nH]cc(c34)C[C@H]21 ?
Response: 95

Request: Another: CN(C)C/C=C/C(=O)Nc1ccc(C(=O)N2CCCC(Nc3ncc(Cl)c(-c4c[nH]c5ccccc45)n3)C2)cc1 (stereo not given)
Response: 90

Request: Thanks! And OCCCNc1cc(-c2ccnc(Nc3cccc(Cl)c3)n2)ccn1 ?
Response: 76

Request: Same question for CN(C)C(=O)Cn1cc(-c2ccc(-c3nnc4ccccn34)cc2)cn1 please.
Response: 97

Request: And for CCn1c(-c2nc3cc(C(=O)N4CCCC(N)C4)ccc3n2C)cc2ccccc21.Cl (stereo not given) ?
Response: 93

Request: Try this compound too: COc1c(Nc2ccc(S(C)(=O)=O)nc2C)ncnc1OC1CCN(C(=O)OC(C)C)CC1
Response: 96

Request: Then this compound: CC(C)(O)C(=O)N1CCN(c2ccc(C(F)(F)F)c(C3=C(c4c[nH]c5ccccc45)C(=O)NC3=O)c2)CC1
Response: 92

Request: Follow-up item: COc1cc(Nc2ncc3c(n2)-c2ccc(Cl)cc2C(c2c(F)cccc2OC)=NC3)ccc1C(=O)O
Response: 94

Request: Also, CCCCC[C@H](O)/C=C/[C@H]1[C@H](O)CC(=O)[C@@H]1CCCCCCC(=O)O please.
Response: 97

Request: Now the same for COc1cc(C(=O)N2CC[C@@H](O)[C@@H](N)C2)cc2nc(-c3cc4ccccc4n3CC3CC3)n(C)c12.Cl
Response: 93

Request: Another: C[C@H](NC(=O)CNC(=O)c1cccc(Cl)c1)c1ccccc1
Response: 98

Request: Try this compound too: COCCn1c(C)c(C)s/c1=N\C(=O)C1C(C)(C)C1(C)C
Response: 98

Request: What about this compound? O=c1ccc2ccc(OCCCCN3CCN(c4cccc5sccc45)CC3)cc2[nH]1
Response: 67

Request: Please answer likewise for COc1cc(OC2CCN(C(C)=O)CC2)ccc1C(=O)N1CCC(N2C(=O)OCc3ccccc32)CC1
Response: 98

Request: Would you kindly repeat that for C[C@@H]1CC(=O)Nc2cccc(-c3ccc4c(c3)c(-c3cnn(C)c3)nn4C)c2N1 ?
Response: 95

Request: Now give it for O=C(O)CCC/C=C\CC1C(O)CC(O)C1/C=C/C(O)COc1cccc(Cl)c1 (stereo not given) too.
Response: 97

Request: And for Nc1nc(-c2ccco2)c2cnn(Cc3ccccc3F)c2n1 ?
Response: 97

Request: Also need CSc1nc(NC2CCCC2)c([N+](=O)[O-])c(NC2CCCC2)n1 , thanks.
Response: 99

Request: Same again, this time with CC(C)(C)c1ccc(CSc2cnn(C(C)(C)C)c(=O)c2Cl)cc1
Response: 96

Request: Also CC(C)C[C@H](CO)Nc1nc(S[C@@H](C)c2ccccc2)nc2nc(N)sc12 , if possible.
Response: 96

----------
system: Fibroblast; assay: Multiplex assay against human fibroblast; format: toxicity, cell-based; conditions: 12 h, 1 µM, compound concentration 1 uM, replicate 1
I'd be grateful if you could share measured Population Fragmented Nuclei (%) for these entries.

Request: Population Fragmented Nuclei (%) for COc1ccc2c(c1OCc1ccccc1)C[C@@H](C(=O)O)N(C(=O)C(c1ccccc1)c1ccccc1)C2 ?
Response: 17%

Request: One more compound: CCCCC[C@H](O)/C=C/[C@H]1[C@H](O)CC(=O)[C@@H]1CCCCCCC(=O)O
Response: 16%

Request: Thanks! And Cc1cc(=O)n(C)c2cc(N3C(=O)CC[C@H](NS(=O)(=O)CC(C)C)[C@H]3c3ccc(Cl)cc3)ccc12 ?
Response: 16%

Request: Entry to check: CSc1nc(NC2CCCC2)c([N+](=O)[O-])c(NC2CCCC2)n1
Response: 16%

Request: What about CN1CCC(C(=O)c2cccc(NC(=O)c3c(F)cc(F)cc3F)n2)CC1 ?
Response: 16%

Request: Check COc1cc2nc(N3CCN(C(=O)COc4c(OC)cccc4C(C)C)CC3)nc(N)c2cc1OC.Cl.Cl too.
Response: 17%

Request: Cool, now Cn1cc(C(=O)OCC2CCN(CCNS(C)(=O)=O)CC2)c2ccccc21
Response: 13%

Request: Would you kindly repeat that for COc1cc(Nc2ncc3c(n2)-c2ccc(Cl)cc2C(c2c(F)cccc2OC)=NC3)ccc1C(=O)O ?
Response: 11%

Request: Now consider CN(C)C/C=C/C(=O)Nc1ccc(C(=O)N2CCCC(Nc3ncc(Cl)c(-c4c[nH]c5ccccc45)n3)C2)cc1 (centres undefined) and answer again.
Response: 15%
